- assay: inhibitors of hydroxyurea-induced Chk1 phosphorylation, primary screen, imaging, HeLa, phospho-Chk1 nuclear intensity (AID 1187); also: test concentration not given here
- condition summary: hydroxyurea-induced phospho-Chk1 immunofluorescence imaging, higher = more signal
Would you kindly list z-score for each of these molecules?
Write the number on its own, no unit after it.

Q: Entry NCCCC[C@@H]1NC(=O)[C@H]2C[C@@H](C(=O)NCc3ccc(F)cc3)[C@@H](c3ccc(O)cc3)N2C1=O needs its z-score filled in; supply it.
Result: -0.367

Q: Entry C=CCC(OC(C)=O)[C@@H]1[C@@H](N(Cc2ccc(-c3cccc(C(F)(F)F)c3)o2)C(=O)Cc2ccc(F)cc2)c2cc(OCCCO)ccc2N1C(=O)c1ccc2ccccc2n1 (some centres undefined) needs its z-score filled in; supply it.
Result: 0.64

Q: Entry CC(C)C[C@@H]1NC(=O)[C@H]2C[C@@H](C(=O)NCCCCCNC(=O)CS)[C@@H](c3ccc(O)cc3)N2C1=O needs its z-score filled in; supply it.
Result: -0.291

Q: Entry COCCOC(=O)N1C(=O)[C@@]2(c3cc(C#CC4(O)CCCCCC4)ccc31)[C@H](c1ccccc1OCCO)N1[C@H](c3ccccc3)[C@H](c3ccccc3)OC(=O)[C@H]1[C@@H]2C(=O)N1CCCCCCC1 needs its z-score filled in; supply it.
Result: -0.561

Q: Entry C=CC[C@@]1(C(=O)O)N=C(c2ccc(OCCCO)cc2)O[C@@H]1c1ccccc1CN=[N+]=[N-] needs its z-score filled in; supply it.
Result: -0.0145

Q: Entry CC(C)C[C@@H]1NC(=O)[C@@H]2C[C@H](C(=O)O)[C@H](c3ccc(O)cc3)N2C1=O needs its z-score filled in; supply it.
Result: 0.918

Q: Entry CC(C)(C)OC(=O)CC[C@]1(C(N)=O)N=C(c2ccc(OCCCO)cc2)O[C@H]1c1ccccc1CN=[N+]=[N-] needs its z-score filled in; supply it.
Result: 0.0796

Q: Entry COCCOC(=O)N1C(=O)[C@@]2(c3cc(C#CC4(O)CCCCCC4)ccc31)[C@H](c1ccc(OCCO)cc1)N1[C@H](c3ccccc3)[C@H](c3ccccc3)OC(=O)[C@H]1[C@@H]2C(=O)N1CCCCCCC1 needs its z-score filled in; supply it.
Result: 0.222

Q: Entry CCCC[C@@H]1C[C@H]1[C@@H](NC(=O)c1ccc(C(F)(F)F)cc1)c1ccc(C(=O)OC)cc1 needs its z-score filled in; supply it.
Result: 0.397

Q: Entry COCCOC(=O)N1C(=O)[C@@]2(c3ccccc31)[C@H](c1ccc(OCCO)cc1)N1[C@H](c3ccccc3)[C@H](c3ccccc3)OC(=O)[C@H]1[C@@H]2C(=O)N1CCN(c2ncccn2)CC1 needs its z-score filled in; supply it.
Result: 0.242

Q: Entry CCN(CC)c1ccc(N2CC=CC34O[C@@H]5C=CCOC(=O)[C@@H]5[C@H]3C(=O)N(CCO)[C@@H]4C2=O)cc1 (some centres undefined) needs its z-score filled in; supply it.
Result: -0.456

Q: Entry O=C1NC(=O)C2C1C=CC(C(O)c1cccc(O)c1)N2Nc1ccc(Cl)cc1Cl (centres undefined) needs its z-score filled in; supply it.
Result: 0.194

Q: Entry COC(=O)[C@@H]1N=C(c2ccc(OCCCO)cc2)O[C@@H]1c1ccccc1CN=[N+]=[N-] needs its z-score filled in; supply it.
Result: -0.0701

Q: Entry C=CCN1C(=O)[C@]2(O[C@H](CCO)[C@@H]([Si](C)(C)c3ccc(OC)cc3)[C@@H]2C)c2ccccc21 needs its z-score filled in; supply it.
Result: -1.58
